condition label: in n-hexane, 323.15 K

| query smiles | solubility (mole fraction) |
| --- | --- |
| O=C1Cc2cc(F)ccc2N1 | 0.00311 |

###

condition label: in ethyl acetate, 308.15 K
quantity kind: solubility (mole fraction)

| query smiles | test result |
| --- | --- |
| O=C1Cc2cc(F)ccc2N1 | 0.03 |

###

condition label: in isopropanol, 303.15 K
quantity kind: solubility (mole fraction)

| query smiles | quantity kind | test result |
| --- | --- | --- |
| O=C1Cc2cc(F)ccc2N1 | solubility (mole fraction) | 0.0436 |

###

condition label: in THF, 288.15 K

| query smiles | solubility (mole fraction) |
| --- | --- |
| O=C1Cc2cc(F)ccc2N1 | 0.104 |

###

condition label: in DMF, 323.15 K

| query smiles | solubility (mole fraction) |
| --- | --- |
| O=C1Cc2cc(F)ccc2N1 | 0.419 |

###

condition label: in n-hexane, 298.15 K

| query smiles | solubility (mole fraction) |
| --- | --- |
| O=C1Cc2cc(F)ccc2N1 | 0.000984 |
